test system: Huh-7.5 cells; experiment: Cell viability assay ([…]-GLO); type: cell-based, human; settings: 10 μM compound, triplicate, average ± SD
Cell viability (% viable) values for the compounds below.
measured_attribute: Cell viability (% viable) (%)

structure=Cc1ccc2nc(-c3ccc4nc(-c5ccc(NC(=O)c6cc(C(F)(F)F)ccc6F)cc5)sc4c3)sc2c1S(=O)(=O)O measured_attribute="Cell viability (% viable)" reading=132
structure=Cc1ccc2nc(-c3ccc4nc(-c5ccc(NC(=O)c6ccncc6)cc5)sc4c3)sc2c1S(=O)(=O)O measured_attribute="Cell viability (% viable)" reading=117
structure=COc1ccc(C(=O)Nc2ccc(-c3nc4ccc(-c5nc6ccc(C)c(S(=O)(=O)O)c6s5)cc4s3)cc2)cc1 measured_attribute="Cell viability (% viable)" reading=85
structure=Cc1ccc2nc(-c3ccc4nc(-c5ccc(NC(=O)c6cc(C(F)(F)F)cc(C(F)(F)F)c6)cc5)sc4c3)sc2c1S(=O)(=O)O measured_attribute="Cell viability (% viable)" reading=122
structure=Cc1ccc2nc(-c3ccc4nc(-c5ccc(NC(=O)c6cccc(Cl)c6)cc5)sc4c3)sc2c1S(=O)(=O)O measured_attribute="Cell viability (% viable)" reading=112
structure=Cc1ccc(C(=O)Nc2ccc(-c3nc4ccc(-c5nc6ccc(C)c(S(=O)(=O)O)c6s5)cc4s3)cc2)cc1 measured_attribute="Cell viability (% viable)" reading=87
structure=Cc1ccc2nc(-c3ccc4nc(-c5ccc(NC(=O)c6ccc(Cl)c(Cl)c6)cc5)sc4c3)sc2c1S(=O)(=O)O measured_attribute="Cell viability (% viable)" reading=114

---

biological target: HCV NS3 helicase NS3h_1b(con1) (Hepatitis C virus genotype 1b, UniProt Q9WMX2); construct: truncated C-terminally His-tagged NS3 proteins lacking the N-terminal protease, called NS3h; His-tag (C); made in house; test: MBHA screen of NCI mechanistic set library at 20 μM (percent inhibition, compound interference); assay type: biochemical; conditions: compounds at 20 μM, MBHA with DNA substrate; calculated from Equation 1
Sequence (Q9WMX2 1192-1657): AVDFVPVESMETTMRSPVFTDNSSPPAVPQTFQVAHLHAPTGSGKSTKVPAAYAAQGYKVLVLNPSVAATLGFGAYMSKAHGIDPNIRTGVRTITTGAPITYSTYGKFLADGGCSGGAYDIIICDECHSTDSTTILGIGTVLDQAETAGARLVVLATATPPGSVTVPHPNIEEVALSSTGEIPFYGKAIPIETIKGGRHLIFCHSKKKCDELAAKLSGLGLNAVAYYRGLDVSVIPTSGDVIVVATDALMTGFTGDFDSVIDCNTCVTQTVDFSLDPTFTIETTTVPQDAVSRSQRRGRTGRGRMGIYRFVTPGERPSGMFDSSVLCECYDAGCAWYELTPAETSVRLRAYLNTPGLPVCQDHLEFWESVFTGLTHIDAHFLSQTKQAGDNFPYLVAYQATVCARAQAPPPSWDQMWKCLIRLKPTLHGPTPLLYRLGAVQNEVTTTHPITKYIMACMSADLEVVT
Inh. (%) (Inhibition) values by entry
measured_attribute: Inh. (%) (Inhibition)

structure=Cc1cc2c(C(C)C)c(O)c(O)c(C=O)c2c(O)c1-c1c(C)cc2c(C(C)C)c(O)c(O)c(C=O)c2c1O assay_system="HCV NS3 helicase NS3h_1b(con1) (Hepatitis C virus genotype 1b, UniProt Q9WMX2)" measured_attribute="Inh. (%) (Inhibition)" reading=−2.0
structure=Nc1ccc(S(=O)(=O)Nc2cnc3c(Cl)cccc3n2)cc1 assay_system="HCV NS3 helicase NS3h_1b(con1) (Hepatitis C virus genotype 1b, UniProt Q9WMX2)" measured_attribute="Inh. (%) (Inhibition)" reading=18.5
structure=CO[C@H]1/C=C\C=C(/C)C(=O)NC2=CC(=O)C(N)=C(C[C@@H](C)C[C@H](OC)[C@H](O)[C@@H](C)/C=C(\C)[C@@H]1OC(N)=O)C2=O assay_system="HCV NS3 helicase NS3h_1b(con1) (Hepatitis C virus genotype 1b, UniProt Q9WMX2)" measured_attribute="Inh. (%) (Inhibition)" reading=31.7
structure=Cc1ccccc1NC(=O)/C=N/O assay_system="HCV NS3 helicase NS3h_1b(con1) (Hepatitis C virus genotype 1b, UniProt Q9WMX2)" measured_attribute="Inh. (%) (Inhibition)" reading=−17.7

---

target: HCV NS3 helicase NS3h_1b(con1) (Hepatitis C virus genotype 1b); construct: truncated C-terminally His-tagged NS3 proteins lacking the N-terminal protease, called NS3h; His-tag (C); made in house; experiment: MBHA screen of NCI mechanistic set library at 20 μM (percent inhibition, compound interference); type: biochemical; conditions: compounds at 20 μM, MBHA with DNA substrate; calculated from Equation 1
// label = y if Inh. (%) (Inhibition) is not less than 10%, otherwise n

molecule=Nc1ccccc1C(=O)NC(=O)Nc1ccc(Oc2ncc(Br)cn2)c(Cl)c1 discrete_label=y
molecule=CC[n+]1c(-c2ccccc2)c2cc(N)ccc2c2ccc(N)cc21.[Br-] discrete_label=y
molecule=CC(=O)/C(C)=N/NC(=O)c1ccccc1O discrete_label=y
molecule=CC(=O)c1sc2c(c1OC(=O)c1ccc(Cl)cc1Cl)c(=O)n(-c1ccccc1)c(=S)n2-c1ccccc1 discrete_label=n
molecule=Nc1nc(N)c(-c2cccc(C(F)(F)F)c2)c(Cc2cccc(C(F)(F)F)c2)n1 discrete_label=y
molecule=CSc1ccc(NC(=O)CCl)cc1 discrete_label=n
molecule="CCc1cccc(C(C)C)c1NC(=O)/C(=N\\NC(N)=O)C(C(=O)OC)c1cnc2ccccc2n1 (centres unmarked)" discrete_label=n
molecule=C[C@H](CSC(=O)c1ccccc1)C(=O)N1c2ccccc2C[C@H]1C(=O)O discrete_label=n

---

Target: E. coli SSB-Cy5-dT15 complex (Escherichia coli)
Construct: purchased Promega
Sequence (P0AGE0 2-178, one chain of several): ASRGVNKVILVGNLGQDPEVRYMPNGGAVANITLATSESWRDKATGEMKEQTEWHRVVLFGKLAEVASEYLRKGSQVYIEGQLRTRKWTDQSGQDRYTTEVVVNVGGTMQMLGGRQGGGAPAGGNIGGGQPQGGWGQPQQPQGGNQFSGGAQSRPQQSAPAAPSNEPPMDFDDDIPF
Test: Escherichia coli SSB Cy5-dT15 binding assay (fluorescence polarization)
Details: read-out: SSB % Displaced @ 100 μM
Protocol: The Escherichia coli SSB assay was performed in a total volume of 20.2 μl in 384-well, flat-bottom, low volume, black microplates (Greiner Bio-One). […]
inhibition at 100 µM reference
measured_attribute: inhibition at 100 µM (%)

structure=Cc1ccc2nc(-c3ccc4nc(-c5ccc(N(C)C(=O)c6ccc7ccccc7c6)cc5)sc4c3)sc2c1S(=O)(=O)O assay_system="E. coli SSB-Cy5-dT15 complex (Escherichia coli)" measured_attribute="inhibition at 100 µM" reading=105
structure=Cc1ccc2nc(-c3ccc4nc(-c5ccc(NC(=O)c6ccc(C(F)(F)F)c(F)c6)cc5)sc4c3)sc2c1S(=O)(=O)O assay_system="E. coli SSB-Cy5-dT15 complex (Escherichia coli)" measured_attribute="inhibition at 100 µM" reading=92
structure=Cc1ccc2nc(-c3ccc(NC(=O)c4ccc(NC(=O)c5ccc(C(F)(F)F)cc5)cc4)cc3)sc2c1S(=O)(=O)O.N assay_system="E. coli SSB-Cy5-dT15 complex (Escherichia coli)" measured_attribute="inhibition at 100 µM" reading=86
structure=Cc1ccc2nc(-c3ccc4nc(-c5ccc(NC(=O)c6ccccc6)cc5)sc4c3)sc2c1S(=O)(=O)O assay_system="E. coli SSB-Cy5-dT15 complex (Escherichia coli)" measured_attribute="inhibition at 100 µM" reading=91
structure=Cc1ccc2nc(-c3ccc4nc(-c5ccc(NC(=O)c6cccnc6)cc5)sc4c3)sc2c1S(=O)(=O)O assay_system="E. coli SSB-Cy5-dT15 complex (Escherichia coli)" measured_attribute="inhibition at 100 µM" reading=48
structure=Cc1ccc2nc(-c3ccc4nc(-c5ccc(NC(=O)c6ccc(C(F)(F)F)cc6)cc5)sc4c3)sc2c1S(=O)(=O)O assay_system="E. coli SSB-Cy5-dT15 complex (Escherichia coli)" measured_attribute="inhibition at 100 µM" reading=80
structure=COc1ccc(C(=O)Nc2ccc(-c3nc4ccc(-c5nc6ccc(C)c(S(=O)(=O)O)c6s5)cc4s3)cc2)cc1 assay_system="E. coli SSB-Cy5-dT15 complex (Escherichia coli)" measured_attribute="inhibition at 100 µM" reading=92
structure=Cc1ccc2nc(-c3ccc4nc(-c5ccc(NC(=O)c6cccc(C(F)(F)F)c6F)cc5)sc4c3)sc2c1S(=O)(=O)O assay_system="E. coli SSB-Cy5-dT15 complex (Escherichia coli)" measured_attribute="inhibition at 100 µM" reading=63
structure=Cc1ccc2nc(-c3ccc4nc(-c5ccc(NC(=O)c6cc(C(F)(F)F)ccc6F)cc5)sc4c3)sc2c1S(=O)(=O)O assay_system="E. coli SSB-Cy5-dT15 complex (Escherichia coli)" measured_attribute="inhibition at 100 µM" reading=69
structure=Cc1ccc2nc(-c3ccc4nc(-c5ccc(NC(=O)c6ccc(CNC(=O)OCC7c8ccccc8-c8ccccc87)cc6)cc5)sc4c3)sc2c1S(=O)(=O)O.N assay_system="E. coli SSB-Cy5-dT15 complex (Escherichia coli)" measured_attribute="inhibition at 100 µM" reading=59
structure=Cc1ccc2nc(-c3ccc4nc(-c5ccc(NC(=O)c6ccc(N(C)C)cc6)cc5)sc4c3)sc2c1S(=O)(=O)O assay_system="E. coli SSB-Cy5-dT15 complex (Escherichia coli)" measured_attribute="inhibition at 100 µM" reading=98
structure=Cc1ccc2nc(-c3ccc4nc(-c5ccc(NCc6ccccc6)cc5)sc4c3)sc2c1S(=O)(=O)O assay_system="E. coli SSB-Cy5-dT15 complex (Escherichia coli)" measured_attribute="inhibition at 100 µM" reading=102
structure=Cc1ccc(C(=O)Nc2ccc(-c3nc4ccc(-c5nc6ccc(C)c(S(=O)(=O)O)c6s5)cc4s3)cc2)cc1 assay_system="E. coli SSB-Cy5-dT15 complex (Escherichia coli)" measured_attribute="inhibition at 100 µM" reading=96
structure=Cc1ccc2nc(-c3ccc4nc(-c5ccc(NC(=O)c6ccc7ccccc7c6)cc5)sc4c3)sc2c1S(=O)(=O)O assay_system="E. coli SSB-Cy5-dT15 complex (Escherichia coli)" measured_attribute="inhibition at 100 µM" reading=78

---

Target: HCV NS3 helicase NS3h_1b(con1) (Hepatitis C virus genotype 1b, UniProt Q9WMX2)
Construct: truncated C-terminally His-tagged NS3 proteins lacking the N-terminal protease, called NS3h; His-tag (C); made in house
Experiment: MBHA screen of NCI mechanistic set library at 20 μM (percent inhibition, compound interference)
Assay type: biochemical
Conditions: compounds at 20 μM, MBHA with a DNA substrate; calculated from Equation 1
Procedure: All molecular beacon-based helicase assays (MBHAs) were performed according to known methods (Belon & Frick (2008) supra; Belon & Frick (2009) supra). […] Fluorescence was read before ATP (F0) addition and 30 minutes after ATP was added to 1 mM (F30) using a Tecan Infinite M200 fluorescence microplate reader with excitation and emission wavelengths set to 643 and 670 nm, respectively. […]
Item-by-item account of Inh. (%) (Inhibition)
measured_attribute: Inh. (%) (Inhibition)

structure=OCCOc1ccc(-c2cc(-c3ccccn3)nc(-c3ccccn3)c2)cc1 assay_system="HCV NS3 helicase NS3h_1b(con1) (Hepatitis C virus genotype 1b, UniProt Q9WMX2)" measured_attribute="Inh. (%) (Inhibition)" units_of_measure=% reading=−25.9
structure=O=NN(CCCl)C(=O)NCc1ccc[n+]([O-])c1 assay_system="HCV NS3 helicase NS3h_1b(con1) (Hepatitis C virus genotype 1b, UniProt Q9WMX2)" measured_attribute="Inh. (%) (Inhibition)" units_of_measure=% reading=−2.9
structure=CC1=C(C(=O)NCc2ccccc2)C(c2ccccc2O)C(C(=O)NCc2ccccc2)=C(C)N1 assay_system="HCV NS3 helicase NS3h_1b(con1) (Hepatitis C virus genotype 1b, UniProt Q9WMX2)" measured_attribute="Inh. (%) (Inhibition)" units_of_measure=% reading=6.8
structure=Cc1ccc(S(=O)(=O)NC(=O)NC2=NC(C)(C)N(c3ccc(Cl)c(Cl)c3)C(N)=N2)cc1 assay_system="HCV NS3 helicase NS3h_1b(con1) (Hepatitis C virus genotype 1b, UniProt Q9WMX2)" measured_attribute="Inh. (%) (Inhibition)" units_of_measure=% reading=7.5
structure=CNc1nc(N(C)C)nc(N(C)C)n1 assay_system="HCV NS3 helicase NS3h_1b(con1) (Hepatitis C virus genotype 1b, UniProt Q9WMX2)" measured_attribute="Inh. (%) (Inhibition)" units_of_measure=% reading=10.6
structure=O=C(C=C1SCCS1)/C=C\c1ccc(Cl)cc1 assay_system="HCV NS3 helicase NS3h_1b(con1) (Hepatitis C virus genotype 1b, UniProt Q9WMX2)" measured_attribute="Inh. (%) (Inhibition)" units_of_measure=% reading=−32.6
structure=Cl.O=C1/C(=C\c2ccc(Cl)c(Cl)c2)CN(C(=O)CCN2CCOCC2)C/C1=C\c1ccc(Cl)c(Cl)c1 assay_system="HCV NS3 helicase NS3h_1b(con1) (Hepatitis C virus genotype 1b, UniProt Q9WMX2)" measured_attribute="Inh. (%) (Inhibition)" units_of_measure=% reading=−3.1
structure=O=C1C(Cl)=C(N2CCN(C3=C(Cl)C(=O)c4ccccc4C3=O)CC2)C(=O)c2ccccc21 assay_system="HCV NS3 helicase NS3h_1b(con1) (Hepatitis C virus genotype 1b, UniProt Q9WMX2)" measured_attribute="Inh. (%) (Inhibition)" units_of_measure=% reading=−6.4
